- Target desc: T1, rabbit-lung angiotensin converting enzyme (ACE) (Sigma) (rabbit, UniProt P12822 34-1310, limits assumed)
- T1 sequence (looked up): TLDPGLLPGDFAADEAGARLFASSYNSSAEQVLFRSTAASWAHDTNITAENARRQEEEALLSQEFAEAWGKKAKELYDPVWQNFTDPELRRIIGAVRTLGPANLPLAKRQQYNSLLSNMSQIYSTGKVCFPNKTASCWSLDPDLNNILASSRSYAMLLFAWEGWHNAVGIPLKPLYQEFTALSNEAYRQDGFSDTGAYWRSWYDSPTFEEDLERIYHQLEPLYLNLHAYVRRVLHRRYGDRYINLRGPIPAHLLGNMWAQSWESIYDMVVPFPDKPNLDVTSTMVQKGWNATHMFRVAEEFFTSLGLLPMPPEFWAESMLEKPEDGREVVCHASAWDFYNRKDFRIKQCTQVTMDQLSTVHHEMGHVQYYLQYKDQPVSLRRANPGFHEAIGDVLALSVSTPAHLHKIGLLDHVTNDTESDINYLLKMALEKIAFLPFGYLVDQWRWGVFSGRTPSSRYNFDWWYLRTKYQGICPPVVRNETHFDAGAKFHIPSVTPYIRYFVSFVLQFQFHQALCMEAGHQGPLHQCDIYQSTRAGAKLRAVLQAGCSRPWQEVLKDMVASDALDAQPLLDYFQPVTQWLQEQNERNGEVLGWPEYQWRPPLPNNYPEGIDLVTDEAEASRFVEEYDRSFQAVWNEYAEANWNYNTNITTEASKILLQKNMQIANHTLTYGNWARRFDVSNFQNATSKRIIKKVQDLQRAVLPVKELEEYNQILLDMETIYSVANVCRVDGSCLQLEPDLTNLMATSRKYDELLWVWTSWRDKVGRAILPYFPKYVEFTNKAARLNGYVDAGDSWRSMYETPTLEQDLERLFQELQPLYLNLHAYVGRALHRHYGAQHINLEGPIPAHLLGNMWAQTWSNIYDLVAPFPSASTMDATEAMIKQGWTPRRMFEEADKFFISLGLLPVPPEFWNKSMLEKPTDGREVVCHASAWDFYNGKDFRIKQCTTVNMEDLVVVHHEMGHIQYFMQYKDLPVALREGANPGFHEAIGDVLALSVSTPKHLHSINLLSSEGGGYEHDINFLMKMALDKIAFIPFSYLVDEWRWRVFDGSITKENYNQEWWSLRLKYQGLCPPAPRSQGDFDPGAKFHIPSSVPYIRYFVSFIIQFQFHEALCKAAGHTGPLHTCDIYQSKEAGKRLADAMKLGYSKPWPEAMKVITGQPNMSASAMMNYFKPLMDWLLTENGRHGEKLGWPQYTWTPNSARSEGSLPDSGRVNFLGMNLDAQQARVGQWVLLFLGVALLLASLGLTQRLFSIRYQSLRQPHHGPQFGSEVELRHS
- Test details: cell-based or functional assay
Property measured: ACE inhibitory activity, IC50 (nM)

As a guide, the following entries are already answered.
Binder	Unit descriptor	Measured result
YYCPADCPS [SEQ ID NO: 2 peptide YYCPADCPS]	nM	1640
RDGGYCC [SEQ ID NO: 1 peptide RDGGYCC]	nM	840
LEEFCC [SEQ ID NO: 4 peptide LEEFCC]	nM	2580

[A] CCGNAVPQ [SEQ ID NO: 7 peptide CCGNAVPQ]
[B] WAAGYCC [SEQ ID NO: 6 peptide WAAGYCC]
// which entry has the larger ACE inhibitory activity, IC50 value, A or B ? Mark your answer with the label of the selected entry.
A
(A: 39600 nM, B: 6880 nM)
